# target.of.assay: cdk1/cyclin B (Homo sapiens)
# Sequence (P06493 whole entry): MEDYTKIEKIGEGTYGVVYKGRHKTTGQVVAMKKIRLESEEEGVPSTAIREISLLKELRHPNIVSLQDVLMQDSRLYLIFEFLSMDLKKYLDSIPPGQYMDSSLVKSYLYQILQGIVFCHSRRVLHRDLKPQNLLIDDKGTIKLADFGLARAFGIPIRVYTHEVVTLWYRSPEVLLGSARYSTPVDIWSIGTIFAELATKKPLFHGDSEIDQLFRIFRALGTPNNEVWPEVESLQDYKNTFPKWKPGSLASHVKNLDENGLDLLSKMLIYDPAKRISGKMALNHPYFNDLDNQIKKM
# Sequence (P14635 whole entry partner): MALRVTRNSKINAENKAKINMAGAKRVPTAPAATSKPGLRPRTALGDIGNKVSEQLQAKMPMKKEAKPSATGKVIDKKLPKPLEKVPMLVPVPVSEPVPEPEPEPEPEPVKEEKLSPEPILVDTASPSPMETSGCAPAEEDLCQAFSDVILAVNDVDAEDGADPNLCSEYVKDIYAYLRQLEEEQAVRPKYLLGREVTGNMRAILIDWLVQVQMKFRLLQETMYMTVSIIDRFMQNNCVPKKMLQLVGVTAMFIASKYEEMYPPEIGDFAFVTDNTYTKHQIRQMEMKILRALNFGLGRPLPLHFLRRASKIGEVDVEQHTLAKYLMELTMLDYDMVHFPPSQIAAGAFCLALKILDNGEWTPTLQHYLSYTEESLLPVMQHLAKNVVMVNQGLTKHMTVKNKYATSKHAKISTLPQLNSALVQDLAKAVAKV
# experimental.details: Cyclin-dependent kinase assay, cdk1/cyclin B
# particulars: CDK1 IC50, nM, Histone H1, 10 µM ATP
Structures can show the parent of a compound that is named as a salt.
Provide the recorded IC50 for the entries that follow.
Write the number in nM without appending the unit.

Data request: Indicate its recorded IC50; the compound in question is CCOC(=O)c1ccccc1NC(=O)N1CCC(Nc2nc(N[C@H]3CC[C@H](N)CC3)nc3c2ncn3C2CCCC2)CC1 [compound 199, dihydrochloride]
Data returned: 70

Data request: Indicate its recorded IC50; the compound in question is N#Cc1cccc(NC(=O)N2CCC(Nc3nc(N[C@H]4CC[C@H](N)CC4)nc4c3ncn4C3CCCC3)CC2)c1 [compound 194, dihydrochloride]
Data returned: 40

Data request: Indicate its recorded IC50; the compound in question is COc1cc(NC(=O)N2CCC(Nc3nc(N[C@H]4CC[C@H](N)CC4)nc4c3ncn4C3CCCC3)CC2)cc(OC)c1OC [compound 198, dihydrochloride]
Data returned: 40

Data request: Indicate its recorded IC50; the compound in question is N[C@H]1CC[C@H](Nc2nc(NC3CCN(S(=O)(=O)c4ccc(Cl)c([N+](=O)[O-])c4)CC3)c3ncn(C4CCCC4)c3n2)CC1 [compound 140, dihydrochloride]
Data returned: 36

Data request: Indicate its recorded IC50; the compound in question is N[C@H]1CC[C@H](Nc2nc(NC3CCN(C(=O)Nc4cc(F)ccc4F)CC3)c3ncn(C4CCCC4)c3n2)CC1 [compound 180, dihydrochloride]
Data returned: 12

Data request: Indicate its recorded IC50; the compound in question is N[C@H]1CC[C@H](Nc2nc(NC3CCN(C(=O)Nc4cccc(Cl)c4)CC3)c3ncn(C4CCCC4)c3n2)CC1 [compound 165, dihydrochloride]
Data returned: 11

Data request: Indicate its recorded IC50; the compound in question is N[C@H]1CC[C@H](Nc2nc(NC3CCN(C(=O)C(O)c4ccccc4)CC3)c3ncn(C4CCCC4)c3n2)CC1 (mixture of isomers) [compound 50, dihydrochloride]
Data returned: 43

Data request: Indicate its recorded IC50; the compound in question is CN(C)c1cccc2c(S(=O)(=O)N3CCC(Nc4nc(N[C@H]5CC[C@H](N)CC5)nc5c4ncn5C4CCCC4)CC3)cccc12 [compound 141, dihydrochloride]
Data returned: 27

Data request: Indicate its recorded IC50; the compound in question is CC(=O)c1ccc(NC(=O)N2CCC(Nc3nc(N[C@H]4CC[C@H](N)CC4)nc4c3ncn4C3CCCC3)CC2)cc1 [compound 188, dihydrochloride]
Data returned: 14

Data request: Indicate its recorded IC50; the compound in question is COc1cccc(CC(=O)N2CCC(Nc3nc(N[C@H]4CC[C@H](N)CC4)nc4c3ncn4C3CCCC3)CC2)c1 [compound 38, dihydrochloride]
Data returned: 27

Data request: Indicate its recorded IC50; the compound in question is CC(C)(C)c1ccc(C(=O)N2CCC(Nc3nc(N[C@H]4CC[C@H](N)CC4)nc4c3ncn4C3CCCC3)CC2)cc1 [compound 20]
Data returned: 161

Data request: Indicate its recorded IC50; the compound in question is N[C@H]1CC[C@H](Nc2nc(NC3CCN(C(=O)COc4ccc(Cl)cc4)CC3)c3ncn(C4CCCC4)c3n2)CC1 [compound 31, dihydrochloride]
Data returned: 105
